Origin of the recorded values: ChEMBL document CHEMBL5036379

# method_notes: Half life of compound
# Assay type: physicochemical
quantity_measured: half-life (min)
Provide the reading as a plain figure in min.

Answer with the recorded half-life for the compound listed here: "O=C(/C=C/c1ccc(Cl)cc1Cl)N(O)CCCCCC1CC1"
33

----------
A set of molecules tested on Botulinum neurotoxin type A (Clostridium botulinum, UniProt P0DPI0), with measured Ki:
Provide the reading as a plain figure in µM.

Answer with the recorded Ki for the molecule listed here: "CCCCCCCN(O)C(=O)/C=C/c1ccc(Cl)cc1Cl"
2.47

Answer with the recorded Ki for the molecule listed here: "C=CCCCCN(O)C(=O)/C=C/c1ccc(Cl)cc1Cl"
6.31

Answer with the recorded Ki for the molecule listed here: "C=CCCCCCCN(O)C(=O)/C=C/c1ccc(Cl)cc1Cl"
2.84

Answer with the recorded Ki for the molecule listed here: "C=CCCCCCN(O)C(=O)/C=C/c1ccc(Cl)cc1Cl"
4.66

----------
A set of compounds tested on Botulinum neurotoxin type A (Clostridium botulinum, UniProt P0DPI0), with measured Ki:

Answer with the recorded Ki for the compound listed here: "C=CCN(O)C(=O)/C=C/c1ccc(Cl)cc1Cl"
> 16 µM

Answer with the recorded Ki for the compound listed here: "C=CCCCN(O)C(=O)/C=C/c1ccc(Cl)cc1Cl"
> 8 µM

Answer with the recorded Ki for the compound listed here: "C=CN(O)C(=O)/C=C/c1ccc(Cl)cc1Cl"
> 32 µM
